procedure_summary: Concentration of Compound 3 in rat plasma after i.v. liposome (LC/MS/MS)
Type: in vivo, SD rat
recorded_conditions: male, Sprague-Dawley, rat, plasma, iv, 40 mg/kg, SD rat plasma, i.v. liposome ([Lipid]=20 mg/mL, 2 ml/kg); animal 2
measure_name: AUC (µg·h/mL)
Give the number; µg·h/mL is assumed, so skip it.

Note down AUC recorded for CCCCCCCCCCCCCCCCOC(=O)CCC(NC(=O)C(CCCCNC(=O)C(N)CCC(=O)O)NC(=O)C(N)CCC(=O)O)C(=O)OCCCCCCCCCCCCCCCC (stereo not shown) [Compound 3]
364

---

procedure_summary: Concentration of Compound 3 in rat tissue 24 hours after i.v. liposome (LC/MS/MS)
Format: in vivo
recorded_conditions: male, SD, rat, lung, iv, 24 hours after i.v. liposome, Lung, animal 1
measure_name: concentration at 24 h (ng/g)
Field format: number, assumed ng/g, no unit text.

For the compound CCCCCCCCCCCCCCCCOC(=O)CCC(NC(=O)C(CCCCNC(=O)C(N)CCC(=O)O)NC(=O)C(N)CCC(=O)O)C(=O)OCCCCCCCCCCCCCCCC (stereo not shown) [Compound 3] , report concentration at 24 h.
5600

---

procedure_summary: Concentration of Compound 3 in rat tissue 24 hours after i.v. liposome (LC/MS/MS)
Format: in vivo
recorded_conditions: male, SD, rat, liver, iv, 24 hours after i.v. liposome, Liver, Average value
measure_name: concentration at 24 h (ng/g)
Numbers only here, please. The scale is ng/g.

Please give the documented concentration at 24 h of CCCCCCCCCCCCCCCCOC(=O)CCC(NC(=O)C(CCCCNC(=O)C(N)CCC(=O)O)NC(=O)C(N)CCC(=O)O)C(=O)OCCCCCCCCCCCCCCCC (stereo not shown)
76800

---

procedure_summary: Concentration of Compound 3 in rat plasma after i.v. liposome (LC/MS/MS)
Format: in vivo, SD rat
recorded_conditions: male, Sprague-Dawley, rat, plasma, iv, 40 mg/kg, SD rat, i.v. BSA-encapsulated pH-responsive liposome ([Lipid]=20 mg/mL, 2 ml/kg); 1 hr; animal 1; read-out: GGLG concentration in plasma
measure_name: concentration at 1 h (ng/mL)
Just the number in ng/mL, nothing appended.

Name the recorded concentration at 1 h of the item CCCCCCCCCCCCCCCCOC(=O)CCC(NC(=O)C(CCCCNC(=O)C(N)CCC(=O)O)NC(=O)C(N)CCC(=O)O)C(=O)OCCCCCCCCCCCCCCCC (stereo not shown) in your answer.
44700

---

procedure_summary: Concentration of Compound 3 in rat plasma after i.v. liposome (LC/MS/MS)
Type: in vivo, SD rat
recorded_conditions: male, Sprague-Dawley, rat, plasma, iv, 40 mg/kg, SD rat, i.v. BSA-encapsulated pH-responsive liposome ([Lipid]=20 mg/mL, 2 ml/kg); 24 hr; animal 1; read-out: GGLG concentration in plasma
measure_name: concentration at 24 h (µg/mL)
Value expressed in µg/mL; do not type the unit.

Output measured concentration at 24 h for this item: CCCCCCCCCCCCCCCCOC(=O)CCC(NC(=O)C(CCCCNC(=O)C(N)CCC(=O)O)NC(=O)C(N)CCC(=O)O)C(=O)OCCCCCCCCCCCCCCCC (stereo not shown)
1.02

---

procedure_summary: Concentration of Compound 3 in rat plasma after i.v. liposome (LC/MS/MS)
Type: in vivo, SD rat
recorded_conditions: male, Sprague-Dawley, rat, plasma, iv, 40 mg/kg, SD rat, i.v. BSA-encapsulated pH-responsive liposome ([Lipid]=20 mg/mL, 2 ml/kg); 2 hr; Average value (N=3); read-out: GGLG concentration in plasma
measure_name: concentration at 2 h (ng/mL)
Respond numerically; units are ng/mL and should not be typed.

Give the value of concentration at 2 h reported for the following: CCCCCCCCCCCCCCCCOC(=O)CCC(NC(=O)C(CCCCNC(=O)C(N)CCC(=O)O)NC(=O)C(N)CCC(=O)O)C(=O)OCCCCCCCCCCCCCCCC (stereo not shown)
31200

---

procedure_summary: Concentration of Compound 3 in rat plasma after i.v. liposome (LC/MS/MS)
Format: in vivo, SD rat
recorded_conditions: male, Sprague-Dawley, rat, plasma, iv, 40 mg/kg, SD rat plasma, i.v. liposome ([Lipid]=20 mg/mL, 2 ml/kg); animal 3
measure_name: AUC
Respond with the figure and its unit, in that order.

State its AUC for this compound: CCCCCCCCCCCCCCCCOC(=O)CCC(NC(=O)C(CCCCNC(=O)C(N)CCC(=O)O)NC(=O)C(N)CCC(=O)O)C(=O)OCCCCCCCCCCCCCCCC (stereo not shown)
297 µg·h/mL

---

procedure_summary: Concentration of Compound 3 in rat plasma after i.v. liposome (LC/MS/MS)
Type: in vivo, SD rat
recorded_conditions: male, Sprague-Dawley, rat, plasma, iv, 40 mg/kg, SD rat plasma, i.v. liposome ([Lipid]=20 mg/mL, 2 ml/kg); animal 2
measure_name: Cmax (µg/mL)
Reply with just the number (in µg/mL).

For the molecule CCCCCCCCCCCCCCCCOC(=O)CCC(NC(=O)C(CCCCNC(=O)C(N)CCC(=O)O)NC(=O)C(N)CCC(=O)O)C(=O)OCCCCCCCCCCCCCCCC (stereo not shown) , report Cmax.
153

---

procedure_summary: Concentration of Compound 3 in rat tissue 24 hours after i.v. liposome (LC/MS/MS)
Format: in vivo
recorded_conditions: male, SD, rat, lung, iv, 24 hours after i.v. liposome, Lung, Average value
measure_name: concentration at 24 h (ng/g)
Give a bare numeral; the unit ng/g is implied.

Fill in reported concentration at 24 h for this entry: CCCCCCCCCCCCCCCCOC(=O)CCC(NC(=O)C(CCCCNC(=O)C(N)CCC(=O)O)NC(=O)C(N)CCC(=O)O)C(=O)OCCCCCCCCCCCCCCCC (stereo not shown)
5600

---

procedure_summary: Concentration of Compound 3 in rat plasma after i.v. liposome (LC/MS/MS)
Format: in vivo, SD rat
recorded_conditions: male, Sprague-Dawley, rat, plasma, iv, 40 mg/kg, SD rat plasma, i.v. liposome ([Lipid]=20 mg/mL, 2 ml/kg); Average
measure_name: AUC (µg·h/mL)
# output: bare number, implied unit µg·h/mL

Write down AUC measured for item CCCCCCCCCCCCCCCCOC(=O)CCC(NC(=O)C(CCCCNC(=O)C(N)CCC(=O)O)NC(=O)C(N)CCC(=O)O)C(=O)OCCCCCCCCCCCCCCCC (stereo not shown) [Compound 3]
309

---

procedure_summary: Concentration of Compound 3 in rat plasma after i.v. liposome (LC/MS/MS)
Format: in vivo, SD rat
recorded_conditions: male, Sprague-Dawley, rat, plasma, iv, 40 mg/kg, SD rat, i.v. BSA-encapsulated pH-responsive liposome ([Lipid]=20 mg/mL, 2 ml/kg); 6 hr; animal 3; read-out: GGLG concentration in plasma
measure_name: concentration at 6 h (ng/mL)
Number in ng/mL, nothing else.

Let me know recorded concentration at 6 h for CCCCCCCCCCCCCCCCOC(=O)CCC(NC(=O)C(CCCCNC(=O)C(N)CCC(=O)O)NC(=O)C(N)CCC(=O)O)C(=O)OCCCCCCCCCCCCCCCC (stereo not shown) , thanks.
8120

---

procedure_summary: Concentration of Compound 3 in rat tissue 24 hours after i.v. liposome (LC/MS/MS)
Assay type: in vivo
recorded_conditions: male, SD, rat, spleen, iv, 24 hours after i.v. liposome, Spleen, Average value
measure_name: concentration at 24 h (ng/g)
Answer in ng/g, number only, no unit symbol.

Quickly give me recorded concentration at 24 h for CCCCCCCCCCCCCCCCOC(=O)CCC(NC(=O)C(CCCCNC(=O)C(N)CCC(=O)O)NC(=O)C(N)CCC(=O)O)C(=O)OCCCCCCCCCCCCCCCC (stereo not shown)
33500

---

procedure_summary: Concentration of Compound 3 in rat plasma after i.v. liposome (LC/MS/MS)
Assay type: in vivo, SD rat
recorded_conditions: male, Sprague-Dawley, rat, plasma, iv, 40 mg/kg, SD rat, i.v. BSA-encapsulated pH-responsive liposome ([Lipid]=20 mg/mL, 2 ml/kg); 1 hr; animal 3; read-out: GGLG concentration in plasma
measure_name: concentration at 1 h (µg/mL)
The reply should be a number in µg/mL, with the unit left off.

Specify concentration at 1 h for CCCCCCCCCCCCCCCCOC(=O)CCC(NC(=O)C(CCCCNC(=O)C(N)CCC(=O)O)NC(=O)C(N)CCC(=O)O)C(=O)OCCCCCCCCCCCCCCCC (stereo not shown) and stop.
53.5
